Tested target: Platelet-derived growth factor receptor (Homo sapiens) (UniProt P09619+P16234)
Protocol: Inhibitory activity against platelet-derived growth factor receptor (PDGFr) at 50 uM
Test readout: inhibition (%)

Below: 4 molecules and their reported inhibition.
{"Molecule": "CCN(CC)CCNC(=O)C1=C(c2ccccc2)c2ccccc2C1=O", "inhibition, %": 8}
{"Molecule": "CNC(=O)C1=C(c2ccccc2)c2ccccc2C1=O", "inhibition, %": 24}
{"Molecule": "COC(=O)C1=C(c2ccccc2)c2cccc(C)c2C1=O", "inhibition, %": 11}
{"Molecule": "CCC1=C(C(N)=O)C(=O)c2ccccc21", "inhibition, %": 8.7}

[A] COc1ccc(C2=C(C(N)=O)C(=O)c3ccccc32)cc1
[B] CN(C)C(=O)C1=C(c2ccccc2)c2ccccc2C1=O
[in] Exercise: compare A and B ; which one has the greater inhibition? Which one? Tell me its label.
[out] A
(A: 23%, B: 10%)

[I] COC(=O)C1=C(c2ccccc2)c2ccncc2C1=O
[II] C/C=C1\c2ccccc2C(=O)C1C(N)=O (configuration not stated)
[in] Exercise: compare I and II ; which one has the greater inhibition? Which one? Tell me its label.
[out] I

---

Tested target: Fibroblast growth factor receptor (Homo sapiens, UniProt P22607+P11362+P22455+P21802)
Sequence (P11362 whole entry, looked up): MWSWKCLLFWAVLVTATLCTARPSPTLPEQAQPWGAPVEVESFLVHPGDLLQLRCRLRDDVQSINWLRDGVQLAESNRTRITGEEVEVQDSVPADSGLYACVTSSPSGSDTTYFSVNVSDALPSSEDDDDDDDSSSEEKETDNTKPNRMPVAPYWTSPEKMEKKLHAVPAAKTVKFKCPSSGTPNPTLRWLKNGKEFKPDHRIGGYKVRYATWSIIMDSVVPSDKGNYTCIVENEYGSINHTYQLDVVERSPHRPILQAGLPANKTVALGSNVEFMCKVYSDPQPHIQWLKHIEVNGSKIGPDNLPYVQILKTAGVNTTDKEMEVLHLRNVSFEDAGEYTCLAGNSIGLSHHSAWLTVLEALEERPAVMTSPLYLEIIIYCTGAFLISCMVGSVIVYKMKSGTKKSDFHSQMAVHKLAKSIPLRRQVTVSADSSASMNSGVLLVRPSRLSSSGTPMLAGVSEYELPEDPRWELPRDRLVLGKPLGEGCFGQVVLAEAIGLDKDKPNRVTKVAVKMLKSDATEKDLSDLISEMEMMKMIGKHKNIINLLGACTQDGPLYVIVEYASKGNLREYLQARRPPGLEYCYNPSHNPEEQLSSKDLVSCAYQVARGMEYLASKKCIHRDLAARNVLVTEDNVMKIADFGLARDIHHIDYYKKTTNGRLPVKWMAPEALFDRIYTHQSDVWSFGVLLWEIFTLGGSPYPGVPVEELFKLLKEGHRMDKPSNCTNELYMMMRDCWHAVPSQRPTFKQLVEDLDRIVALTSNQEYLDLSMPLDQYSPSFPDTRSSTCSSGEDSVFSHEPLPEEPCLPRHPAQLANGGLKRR
Sequence (P21802 whole entry, looked up): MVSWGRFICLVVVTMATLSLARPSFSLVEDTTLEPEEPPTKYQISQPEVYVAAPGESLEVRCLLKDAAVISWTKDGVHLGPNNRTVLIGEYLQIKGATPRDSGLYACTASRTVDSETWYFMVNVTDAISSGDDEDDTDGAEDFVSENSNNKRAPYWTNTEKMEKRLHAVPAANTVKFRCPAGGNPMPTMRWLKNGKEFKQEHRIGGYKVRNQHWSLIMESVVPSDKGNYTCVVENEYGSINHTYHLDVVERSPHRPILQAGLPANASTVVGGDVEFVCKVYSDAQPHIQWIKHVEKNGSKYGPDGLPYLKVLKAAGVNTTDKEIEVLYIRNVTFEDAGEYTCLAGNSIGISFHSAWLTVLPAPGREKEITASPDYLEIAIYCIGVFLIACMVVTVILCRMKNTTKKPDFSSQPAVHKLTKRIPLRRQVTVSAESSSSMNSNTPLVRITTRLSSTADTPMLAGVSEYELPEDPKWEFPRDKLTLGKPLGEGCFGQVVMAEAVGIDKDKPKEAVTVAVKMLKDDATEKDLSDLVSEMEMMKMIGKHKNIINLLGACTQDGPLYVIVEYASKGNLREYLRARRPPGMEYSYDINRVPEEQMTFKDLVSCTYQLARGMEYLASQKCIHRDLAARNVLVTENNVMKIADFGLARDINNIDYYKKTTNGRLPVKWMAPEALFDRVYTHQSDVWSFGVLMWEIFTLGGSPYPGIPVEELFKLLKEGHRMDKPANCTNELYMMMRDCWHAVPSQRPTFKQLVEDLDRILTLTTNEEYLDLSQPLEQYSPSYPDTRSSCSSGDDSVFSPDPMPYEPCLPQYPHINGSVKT
Sequence (P22455 whole entry, looked up): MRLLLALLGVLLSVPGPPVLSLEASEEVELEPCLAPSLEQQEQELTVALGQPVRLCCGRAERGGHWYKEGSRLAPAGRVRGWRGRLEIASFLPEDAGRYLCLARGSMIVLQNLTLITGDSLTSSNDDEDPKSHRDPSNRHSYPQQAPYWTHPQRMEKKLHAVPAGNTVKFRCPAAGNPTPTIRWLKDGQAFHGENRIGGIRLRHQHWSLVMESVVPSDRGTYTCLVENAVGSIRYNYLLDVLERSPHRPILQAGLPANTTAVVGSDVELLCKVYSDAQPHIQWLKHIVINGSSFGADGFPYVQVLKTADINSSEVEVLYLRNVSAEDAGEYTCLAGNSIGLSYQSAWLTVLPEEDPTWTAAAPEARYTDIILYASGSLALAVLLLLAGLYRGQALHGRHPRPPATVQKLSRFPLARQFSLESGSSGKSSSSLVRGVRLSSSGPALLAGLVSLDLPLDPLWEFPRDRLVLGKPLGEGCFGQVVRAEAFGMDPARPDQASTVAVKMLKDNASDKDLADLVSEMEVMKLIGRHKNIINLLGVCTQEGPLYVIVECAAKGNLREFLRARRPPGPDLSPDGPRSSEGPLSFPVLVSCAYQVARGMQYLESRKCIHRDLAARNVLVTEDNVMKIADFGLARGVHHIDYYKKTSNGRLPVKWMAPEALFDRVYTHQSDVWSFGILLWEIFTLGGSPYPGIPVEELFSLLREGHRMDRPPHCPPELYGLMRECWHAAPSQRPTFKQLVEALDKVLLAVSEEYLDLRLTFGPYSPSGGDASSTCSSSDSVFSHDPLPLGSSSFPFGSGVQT
Sequence (P22607 whole entry, looked up): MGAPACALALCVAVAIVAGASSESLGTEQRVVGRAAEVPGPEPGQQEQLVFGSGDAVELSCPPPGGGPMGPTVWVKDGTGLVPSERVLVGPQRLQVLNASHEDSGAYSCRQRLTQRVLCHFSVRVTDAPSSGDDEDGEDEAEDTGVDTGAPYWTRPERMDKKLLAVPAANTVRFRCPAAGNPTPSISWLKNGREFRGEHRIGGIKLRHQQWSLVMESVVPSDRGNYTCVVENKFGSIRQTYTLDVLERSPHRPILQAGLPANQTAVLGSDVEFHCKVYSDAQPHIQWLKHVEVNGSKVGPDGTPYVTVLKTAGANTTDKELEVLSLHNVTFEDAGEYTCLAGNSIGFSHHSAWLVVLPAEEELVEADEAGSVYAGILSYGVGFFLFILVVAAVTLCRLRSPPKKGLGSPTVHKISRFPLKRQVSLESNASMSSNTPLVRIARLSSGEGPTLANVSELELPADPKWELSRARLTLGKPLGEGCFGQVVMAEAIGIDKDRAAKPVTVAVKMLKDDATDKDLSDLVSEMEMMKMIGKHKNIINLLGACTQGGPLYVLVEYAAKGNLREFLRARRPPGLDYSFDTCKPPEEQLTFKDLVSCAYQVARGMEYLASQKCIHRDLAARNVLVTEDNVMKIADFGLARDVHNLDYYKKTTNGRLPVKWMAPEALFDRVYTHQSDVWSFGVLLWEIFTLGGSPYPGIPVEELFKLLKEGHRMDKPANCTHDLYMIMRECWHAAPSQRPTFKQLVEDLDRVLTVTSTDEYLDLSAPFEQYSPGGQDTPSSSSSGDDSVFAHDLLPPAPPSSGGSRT
Protocol: Inhibitory activity against fibroblast growth factor receptor (FGFr) at 50 uM
Format: protein assay
Test readout: inhibition (%)

{"Compound": "CCN(CC)CCNC(=O)C1=C(c2ccccc2)c2ccccc2C1=O", "Observed": 21}
{"Compound": "C/C=C1\\c2ccccc2C(=O)C1C(N)=O (stereo not given)", "Observed": 26}
{"Compound": "NC(=O)C1C(=O)c2ccccc2C1c1ccccc1 (stereo not given)", "Observed": 23}

[A] CN(C)C(=O)C1=C(c2ccccc2)c2ccccc2C1=O
[B] NC(=O)C1=C(c2ccccc2)c2ccccc2C1O (stereo not given)
[in] For the pair A and B , which member has the lower inhibition number? Which one? Tell me its label.
[out] A
(A: 10%, B: 29%)

---

Tested target: Fibroblast growth factor receptor (Homo sapiens, UniProt P22607+P11362+P22455+P21802)
Protocol: Inhibitory activity against fibroblast growth factor receptor (FGFr)
Format: protein assay
Test readout: IC50 (µM)

{"Query smiles": "COC(=O)C1=C(c2ccccc2)c2ccccc2C1=O", "Observed": 5.1}
{"Query smiles": "COc1ccc(C2=C(C(N)=O)C(=O)c3ccccc32)cc1", "Observed": 10.6}
{"Query smiles": "CNC(=O)C1=C(c2ccccc2)c2ccccc2C1=O", "Observed": 21}
{"Query smiles": "CCC1=C(C(N)=O)C(=O)c2ccccc21", "Observed": 9.2}
{"Query smiles": "COC(=O)C1=C(c2ccccc2)c2c(OC)cccc2C1=O", "Observed": 15}

[1] COC(=O)C1=C(c2ccccc2)c2cc([N+](=O)[O-])ccc2C1=O.COC(=O)C1=C(c2ccccc2)c2ccc([N+](=O)[O-])cc2C1=O
[2] COC(=O)C1=C(c2ccccc2)c2ccncc2C1=O
[3] NC(=O)C1=C2CCCc3cccc(c32)C1=O
[in] Could you please sort these 3 entries by IC50 from high to low? The reply should contain the labels ordered as requested.
[out] 1, 2, 3
(1: 10 µM, 2: 6.8 µM, 3: 4.2 µM)

[1] NC(=O)C1=C(c2ccc(Cl)cc2)c2ccccc2C1=O
[2] COC(=O)C1=C(c2ccccc2)c2cccc(C)c2C1=O
[in] Exercise: compare 1 and 2 ; which one has the greater IC50? Which one? Tell me its label.
[out] 2
(2: 44 µM, 1: 5.4 µM)

[I] O=C(O)C1=C(c2ccccc2)c2ccccc2C1=O
[II] COC(=O)C1=C(c2ccccc2)c2cc(Cl)ccc2C1=O.COC(=O)C1=C(c2ccccc2)c2ccc(Cl)cc2C1=O
[in] Exercise: compare I and II ; which one has the greater IC50? Which one? Tell me its label.
[out] I

---

Tested target: Platelet-derived growth factor receptor (Homo sapiens) (UniProt P09619+P16234)
Protocol: Inhibitory activity against platelet-derived growth factor receptor (PDGFr) at 50 uM
Test readout: inhibition (%)

{"Compound": "COC(=O)C1=C(c2ccccc2)c2cc(C)ccc2C1=O.COC(=O)C1=C(c2ccccc2)c2ccc(C)cc2C1=O", "Observed": 20}
{"Compound": "COC(=O)C1=C(c2ccccc2)c2ccccc2C1=O", "Observed": 19}
{"Compound": "NC(=O)C1=C(c2ccccc2)c2ccccc2C1=O", "Observed": 25}
{"Compound": "COC(=O)C1=C(c2ccccc2)c2cc([N+](=O)[O-])ccc2C1=O.COC(=O)C1=C(c2ccccc2)c2ccc([N+](=O)[O-])cc2C1=O", "Observed": 19}

[P] NC(=O)C1=C(c2ccc(Cl)cc2)c2ccccc2C1=O
[Q] NC(=O)C1=C(c2ccccc2)c2ccccc2C1O (configuration not stated)
[R] NC(=O)C1C(=O)c2ccccc2C1c1ccccc1 (configuration not stated)
[in] Could you please sort these 3 entries by inhibition from high to low? The reply should contain the labels ordered as requested.
[out] P, R, Q

---

Tested target: Proto-oncogene tyrosine-protein kinase Src (Homo sapiens)
Sequence (P12931 2-536 limits assumed): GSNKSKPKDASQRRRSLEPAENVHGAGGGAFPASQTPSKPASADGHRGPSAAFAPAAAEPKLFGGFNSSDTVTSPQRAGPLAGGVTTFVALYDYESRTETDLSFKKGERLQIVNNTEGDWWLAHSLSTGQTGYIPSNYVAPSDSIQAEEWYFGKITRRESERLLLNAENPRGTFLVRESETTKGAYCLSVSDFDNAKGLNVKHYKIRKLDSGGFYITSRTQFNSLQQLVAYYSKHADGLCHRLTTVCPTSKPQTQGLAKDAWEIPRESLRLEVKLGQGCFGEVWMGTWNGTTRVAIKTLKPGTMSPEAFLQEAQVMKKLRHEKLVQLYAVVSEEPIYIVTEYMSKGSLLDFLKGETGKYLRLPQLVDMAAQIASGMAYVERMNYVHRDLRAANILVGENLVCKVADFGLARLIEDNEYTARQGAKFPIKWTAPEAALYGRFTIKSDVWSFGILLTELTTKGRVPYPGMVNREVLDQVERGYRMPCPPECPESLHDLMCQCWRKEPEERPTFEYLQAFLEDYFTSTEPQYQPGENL
Test readout: IC50 (µM)

{"Query smiles": "NC(=O)C1=C(c2ccc(Cl)cc2)c2ccccc2C1=O", "Unit symbol": "µM", "IC50": 9.6}

[A] COC(=O)C1=C(c2ccccc2)c2cc([N+](=O)[O-])ccc2C1=O.COC(=O)C1=C(c2ccccc2)c2ccc([N+](=O)[O-])cc2C1=O
[B] NC(=O)C1=C(c2ccccc2)c2ccccc2C1=O
[C] COC(=O)C1=C(c2ccccc2)c2cc(C)ccc2C1=O.COC(=O)C1=C(c2ccccc2)c2ccc(C)cc2C1=O
[D] COC(=O)C1=C(c2ccccc2)c2c(OC)cccc2C1=O
[in] Hi! Can you put these in order of IC50, lowest number first? The reply should contain the labels ordered as requested.
[out] B, A, D, C

---

Tested target: UniProt P12931
Protocol: Inhibitory activity against c-src tyrosine kinase at 50 uM
Test readout: inhibition (%)

{"Compound": "CN(C)C(=O)C1=C(c2ccccc2)c2ccccc2C1=O", "Tested target": "UniProt P12931", "inhibition [%]": 1}
{"Compound": "NC(=O)C1C(=O)c2ccccc2C1c1ccccc1 (stereo unspecified)", "Tested target": "UniProt P12931", "inhibition [%]": 8}
{"Compound": "CNC(=O)C1=C(c2ccccc2)c2ccccc2C1=O", "Tested target": "UniProt P12931", "inhibition [%]": 16}
{"Compound": "CCC1=C(C(N)=O)C(=O)c2ccccc21", "Tested target": "UniProt P12931", "inhibition [%]": 53}
{"Compound": "CCN(CC)CCNC(=O)C1=C(c2ccccc2)c2ccccc2C1=O", "Tested target": "UniProt P12931", "inhibition [%]": 11}
{"Compound": "NC(=O)C1=C2CCCc3cccc(c32)C1=O", "Tested target": "UniProt P12931", "inhibition [%]": 48}

[I] NC(=O)C1=C(c2ccccc2)c2ccccc2C1O (stereo unspecified)
[II] O=C(O)C1=C(c2ccccc2)c2ccccc2C1=O
[in] Exercise: compare I and II ; which one has the greater inhibition? Which one? Tell me its label.
[out] I
(I: 27%, II: 7%)

[A] C/C=C1\c2ccccc2C(=O)C1C(N)=O (stereo unspecified)
[B] COC(=O)C1=C(c2ccccc2)c2cc(Cl)ccc2C1=O.COC(=O)C1=C(c2ccccc2)c2ccc(Cl)cc2C1=O
[C] COC(=O)C1=C(c2ccccc2)c2cccc(C)c2C1=O
[in] Hi! Can you put these in order of inhibition, lowest number first? The reply should contain the labels ordered as requested.
[out] A, B, C

---

Tested target: Platelet-derived growth factor receptor (Homo sapiens) (UniProt P09619+P16234)
Protocol: Inhibitory activity against platelet-derived growth factor receptor (PDGFr) at 50 uM
Test readout: inhibition (%)

Below: 2 molecules and their reported inhibition.
{"Query smiles": "COC(=O)C1=C(c2ccccc2)c2cc(Cl)ccc2C1=O.COC(=O)C1=C(c2ccccc2)c2ccc(Cl)cc2C1=O", "inhibition [%]": 25}
{"Query smiles": "NC(=O)C1=C2CCCc3cccc(c32)C1=O", "inhibition [%]": 25}

[a] O=C(O)C1=C(c2ccccc2)c2ccccc2C1=O
[b] COC(=O)C1=C(c2ccccc2)c2c(OC)cccc2C1=O
[in] For the pair a and b , which member has the lower inhibition number? Which one? Tell me its label.
[out] a

The measurements presented in this section are drawn from ChEMBL document CHEMBL1129223.
